- assayed_system: Cdk5/p35 (Homo sapiens, UniProt Q00535)
- Sequence (Q00535 whole entry, species assumed): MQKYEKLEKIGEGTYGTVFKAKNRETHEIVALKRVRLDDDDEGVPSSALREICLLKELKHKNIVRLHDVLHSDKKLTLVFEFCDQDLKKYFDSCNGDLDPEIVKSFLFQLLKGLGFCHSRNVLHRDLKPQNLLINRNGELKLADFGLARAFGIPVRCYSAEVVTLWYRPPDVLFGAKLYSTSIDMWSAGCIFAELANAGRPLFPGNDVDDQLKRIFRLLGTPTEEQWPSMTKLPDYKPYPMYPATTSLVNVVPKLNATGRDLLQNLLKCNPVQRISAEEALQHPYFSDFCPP
- Sequence (Q15078 whole entry partner, species assumed): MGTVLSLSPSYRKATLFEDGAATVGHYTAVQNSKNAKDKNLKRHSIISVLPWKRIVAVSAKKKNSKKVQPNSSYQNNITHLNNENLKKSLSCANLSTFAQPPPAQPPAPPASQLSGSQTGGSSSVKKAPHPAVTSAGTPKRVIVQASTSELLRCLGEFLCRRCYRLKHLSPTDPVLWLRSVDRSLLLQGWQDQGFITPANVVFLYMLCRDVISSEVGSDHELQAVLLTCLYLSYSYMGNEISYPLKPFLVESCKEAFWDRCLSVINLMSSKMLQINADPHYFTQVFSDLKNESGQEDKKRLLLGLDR
- protocol_notes: Cdk5 kinase assay (ADP-Glo) with Cdk5/p35 complex
- Format: biochemical
- particulars: 10 μM ATP, histone substrate, inhibitor 0-100 nM
measurement_kind: IC50 (nM)

Reference set (3 entries):
| compound_structure | IC50, nM |
| --- | --- |
| O=C1c2cccc3cccc(c23)C(=O)N1CCCSc1n[nH]c(-c2ccc(F)cc2)n1 | 57.2 |
| O=C(Nc1ccc(Cl)cc1C(=O)NCCO)c1ccc(Cl)cc1Cl | 27.7 |
| Cc1ccc(-c2csc(Cc3nc(-c4cc5ccccc5oc4=O)cs3)n2)cc1 | 68.7 |

(I) O=C(CSc1nnc(-c2ccccc2Cl)[nH]1)c1ccc(O)c(O)c1
(II) CCOC(=O)c1cnc(Nc2nc3ccccc3o2)nc1CSc1nnc(C)s1
Exercise: Just curious, which one has the larger IC50 reading, I or II ? Returns: label corresponding to the selected item.
Key: II

---

- assayed_system: Cdk1/CylY
- Sequence (P06493 whole entry): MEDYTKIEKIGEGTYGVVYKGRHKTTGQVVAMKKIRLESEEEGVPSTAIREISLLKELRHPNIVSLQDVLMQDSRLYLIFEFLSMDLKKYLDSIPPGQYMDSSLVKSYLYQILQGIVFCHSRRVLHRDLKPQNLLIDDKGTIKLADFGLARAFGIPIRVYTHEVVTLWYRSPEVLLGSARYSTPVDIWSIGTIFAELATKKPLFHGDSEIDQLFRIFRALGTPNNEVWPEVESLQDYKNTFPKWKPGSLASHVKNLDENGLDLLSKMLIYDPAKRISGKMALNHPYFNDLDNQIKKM
- Sequence (Q8ND76 2-341 partner): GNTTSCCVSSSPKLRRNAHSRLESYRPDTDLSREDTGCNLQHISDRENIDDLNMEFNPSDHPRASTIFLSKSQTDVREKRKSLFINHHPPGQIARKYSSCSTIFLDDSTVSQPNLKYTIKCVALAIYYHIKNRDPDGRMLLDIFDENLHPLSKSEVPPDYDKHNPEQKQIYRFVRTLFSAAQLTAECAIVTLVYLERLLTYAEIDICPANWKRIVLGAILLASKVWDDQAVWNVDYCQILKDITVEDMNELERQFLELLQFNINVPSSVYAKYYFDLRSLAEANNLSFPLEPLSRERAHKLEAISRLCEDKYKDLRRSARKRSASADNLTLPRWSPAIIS
- protocol_notes: Specificity kinase assay, Cdk1 with cyclin Y
- particulars: inhibitor 0-100 nM; read-out: IC50, Cdk1 with activator cyclin Y
measurement_kind: IC50 (nM)

| compound | unit_name | assay_value |
| --- | --- | --- |
| O=C(COc1ccccc1C(=O)Nc1cccc(Cl)c1Cl)Nc1ccc(N2CCOCC2)c(Cl)c1 [BLINK11] | nM | 39.3 |
| COc1ccc(C(=O)C[C@@]2(O)C(=O)N(Cc3ccccc3)c3ccc(Br)cc32)cc1[N+](=O)[O-] [BLINK15] | nM | 35.8 |

---

- assayed_system: Cdk5/p25 (Homo sapiens)
- Sequence (Q00535 whole entry, species assumed): as the sequence (Q00535 whole entry, species assumed) above
- Sequence (Q15078 99-307 partner limits assumed, species assumed): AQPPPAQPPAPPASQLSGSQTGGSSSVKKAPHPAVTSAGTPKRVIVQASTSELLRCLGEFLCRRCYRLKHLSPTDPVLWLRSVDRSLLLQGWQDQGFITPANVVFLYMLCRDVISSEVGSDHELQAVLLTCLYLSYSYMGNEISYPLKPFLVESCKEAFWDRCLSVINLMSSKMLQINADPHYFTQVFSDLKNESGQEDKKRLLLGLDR
- protocol_notes: Cdk5 kinase assay (ADP-Glo) with Cdk5/p25 complex
- Assay type: biochemical
- particulars: 10 μM ATP, histone substrate, inhibitor 0-100 nM
measurement_kind: IC50 (nM)

| compound | unit_name | IC50 |
| --- | --- | --- |
| CCOC(=O)c1cnc(Nc2nc3ccccc3o2)nc1CSc1nnc(C)s1 [BLINK9] | nM | 35.1 |

(I) O=C(Nc1ccc(Cl)cc1C(=O)NCCO)c1ccc(Cl)cc1Cl [BLINK4]
(II) Cc1nnc(SCC(=O)Nc2nsc(-c3ccc(Cl)cc3)n2)s1 [BLINK7]
(III) O=C(CSc1n[nH]c(-c2ccc(Cl)cc2)n1)N[C@H]1C[C@@H]2CC[C@H]1C2 [BLINK17]
Exercise: Which order do these items take when sorted by rising IC50? List them. Field: ranking. Enter the labels in the order requested.
Key: I, III, II

---

Parameter viability at 24 h: see the listing below.
- protocol_notes: MTT cell toxicity assay in HepG2 cells
- Format: cell-based
- particulars: human, all doses (25 to 100 μM)

| molecule | viability at 24 h |
| --- | --- |
| COc1ccc(C(=O)C[C@@]2(O)C(=O)N(Cc3ccccc3)c3ccc(Br)cc32)cc1[N+](=O)[O-] [BLINK15] | > 50% |

The record that follows has no viability at 24 h shown yet.
Exercise: # lookup: viability at 24 h of O=C(COc1ccccc1C(=O)Nc1cccc(Cl)c1Cl)Nc1ccc(N2CCOCC2)c(Cl)c1 [BLINK11]
Key: > 50%

---

- protocol_notes: PAMPA blood-brain barrier permeability assay (brain polar lipid extract)
- Format: in vitro ADME
- particulars: 7 h incubation, 100-500 uM, > 10*10^-6 cm/s = high permeability, read-out: Paap (PAMPA-BBB permeability)
Catalogue of Papp at 7 h values

| compound_structure | Papp at 7 h |
| --- | --- |
| O=C(COc1ccccc1C(=O)Nc1cccc(Cl)c1Cl)Nc1ccc(N2CCOCC2)c(Cl)c1 | > 100 nm/s |

Exercise: Item COc1ccc(C(=O)C[C@@]2(O)C(=O)N(Cc3ccccc3)c3ccc(Br)cc32)cc1[N+](=O)[O-] has what recorded Papp at 7 h?
Key: > 100 nm/s

Where do these numbers come from? They come from paper PMC11986975.
